Origin of measurements: ChEMBL document CHEMBL1909046

target desc: Sodium-dependent noradrenaline transporter (Homo sapiens)
Sequence (P23975 whole entry): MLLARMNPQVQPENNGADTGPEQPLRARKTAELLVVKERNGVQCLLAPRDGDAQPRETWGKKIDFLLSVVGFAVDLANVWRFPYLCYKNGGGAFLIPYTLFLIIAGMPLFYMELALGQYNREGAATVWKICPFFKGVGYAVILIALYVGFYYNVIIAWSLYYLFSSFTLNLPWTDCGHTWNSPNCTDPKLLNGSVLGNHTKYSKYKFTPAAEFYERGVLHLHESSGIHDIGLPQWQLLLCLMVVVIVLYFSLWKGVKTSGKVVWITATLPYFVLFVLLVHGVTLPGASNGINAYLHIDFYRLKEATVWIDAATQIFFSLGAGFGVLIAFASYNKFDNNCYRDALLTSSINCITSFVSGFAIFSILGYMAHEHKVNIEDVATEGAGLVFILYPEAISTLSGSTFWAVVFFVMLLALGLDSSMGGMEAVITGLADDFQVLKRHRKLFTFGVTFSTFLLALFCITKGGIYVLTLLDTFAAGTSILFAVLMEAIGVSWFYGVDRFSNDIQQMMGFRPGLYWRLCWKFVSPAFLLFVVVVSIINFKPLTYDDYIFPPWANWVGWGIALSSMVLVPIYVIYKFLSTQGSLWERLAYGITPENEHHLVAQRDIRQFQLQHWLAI
assay overview: DRUGMATRIX: Norepinephrine Transporter radioligand binding (ligand: [125I] RTI-55)
Type: cell membranes, MDCK, Membrane
study conditions: mdck; Not Active = under 50% inhibition at 10 µM
measured attribute: Ki

STANNOUS FLUORIDE
Not Active
POLYVINYL ALCOHOL
Not Active
INSULIN HUMAN
Not Active
COBALT(II) ACETYLACETONATE
Not Active

* * *

target desc: Cholecystokinin receptor type A (Homo sapiens); note: in other assays of this panel Not Active means under 50% inhibition at 10 µM
Sequence (P32238 whole entry): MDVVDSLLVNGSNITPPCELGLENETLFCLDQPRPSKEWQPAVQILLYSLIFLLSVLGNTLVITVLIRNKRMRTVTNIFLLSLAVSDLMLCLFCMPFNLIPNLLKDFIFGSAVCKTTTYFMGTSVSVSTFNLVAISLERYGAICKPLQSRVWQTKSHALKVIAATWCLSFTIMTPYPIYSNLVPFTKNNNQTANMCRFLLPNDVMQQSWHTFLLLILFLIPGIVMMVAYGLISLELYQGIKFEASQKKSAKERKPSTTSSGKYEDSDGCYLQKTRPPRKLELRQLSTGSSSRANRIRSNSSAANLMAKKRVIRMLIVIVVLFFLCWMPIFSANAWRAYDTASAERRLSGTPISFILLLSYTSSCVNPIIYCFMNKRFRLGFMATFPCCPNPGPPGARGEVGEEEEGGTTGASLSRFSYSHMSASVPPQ
Type: cell membranes, Membrane
study conditions: 1321-n1
measured attribute: IC50

Please review the following examples before continuing.
POLYVINYL ALCOHOL
Not Active
THIMEROSAL
Not Active
INSULIN HUMAN
Not Active
COBALT(II) ACETYLACETONATE
Not Active

We now examine a further substance.
Form: substance = STANNOUS FLUORIDE ; IC50 = Not Active

* * *

assay overview: DRUGMATRIX: beta-Lactamase enzyme inhibition (substrate: Nitrocefin)
Design: species or system Bacillus cereus
study conditions: Not Active = under 50% inhibition at 10 µM
measured attribute: Ki

Field: example entries. Status: answers known.
POLYVINYL ALCOHOL
Not Active
STANNOUS FLUORIDE
Not Active
INSULIN HUMAN
Not Active
THIMEROSAL
Not Active

Consider the additional substance presented here.
Memo: COBALT(II) ACETYLACETONATE , reported Ki: Not Active

* * *

target desc: Prostaglandin G/H synthase 1 (Homo sapiens); note: in other assays of this panel Not Active means under 50% inhibition at 10 µM;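 note: inhibition of COX-1 enzyme activity, with arachidonic acid supplied as substrate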
Sequence (P23219 whole entry): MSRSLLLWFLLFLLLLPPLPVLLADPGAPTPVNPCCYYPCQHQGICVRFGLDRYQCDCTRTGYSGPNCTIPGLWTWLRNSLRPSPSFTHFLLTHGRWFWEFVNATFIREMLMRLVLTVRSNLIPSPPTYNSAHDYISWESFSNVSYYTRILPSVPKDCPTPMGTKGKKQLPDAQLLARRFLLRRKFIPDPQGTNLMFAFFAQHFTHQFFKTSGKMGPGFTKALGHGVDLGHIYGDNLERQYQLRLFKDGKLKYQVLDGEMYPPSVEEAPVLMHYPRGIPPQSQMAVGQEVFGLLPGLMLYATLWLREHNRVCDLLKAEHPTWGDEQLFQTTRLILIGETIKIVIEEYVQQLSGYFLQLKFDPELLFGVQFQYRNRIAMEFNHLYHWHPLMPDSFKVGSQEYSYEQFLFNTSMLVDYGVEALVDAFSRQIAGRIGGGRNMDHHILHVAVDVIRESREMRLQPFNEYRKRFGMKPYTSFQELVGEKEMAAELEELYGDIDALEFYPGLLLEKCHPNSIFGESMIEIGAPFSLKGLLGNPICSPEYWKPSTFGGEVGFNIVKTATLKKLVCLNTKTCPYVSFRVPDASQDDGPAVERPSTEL
assay overview: biochemical
Type: tissue-based, Platelet
study conditions: read-out: IC50
The following molecules are shown together with reported pIC50 values.
Notebook: values listed as pIC50 are -log10 of the concentration (mol/L).

Cc1cccc(Nc2ccccc2C(=O)O)c1C [MEFENAMIC ACID]
6.94

Documented pIC50 of COc1cc(CNC(=O)CCCC/C=C/C(C)C)ccc1O [CAPSAICIN] : 5.81

Field pIC50 (entry O=C(/C=C/c1ccc(O)c(O)c1)OCCc1ccccc1 [CAFFEIC ACID PHENETHYL ESTER] ) reads 6.08

pIC50 measured on O=C(O)Cc1ccc(-c2ccccc2)cc1 [FELBINAC] = 6.05

* * *

target desc: Melanocortin receptor 5 (Homo sapiens, UniProt P33032); note: in other assays of this panel Not Active means under 50% inhibition at 10 µM
Sequence (P33032 whole entry): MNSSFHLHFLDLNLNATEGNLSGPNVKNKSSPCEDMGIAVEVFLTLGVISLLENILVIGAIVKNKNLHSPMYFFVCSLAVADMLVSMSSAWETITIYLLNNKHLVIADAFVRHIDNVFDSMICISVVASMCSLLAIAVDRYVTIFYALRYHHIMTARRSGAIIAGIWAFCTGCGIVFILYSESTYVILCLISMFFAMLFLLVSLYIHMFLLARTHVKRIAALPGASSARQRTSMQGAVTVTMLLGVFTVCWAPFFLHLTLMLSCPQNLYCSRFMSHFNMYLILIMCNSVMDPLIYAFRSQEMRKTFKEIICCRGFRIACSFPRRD
Type: cell membranes, HEK293, Membrane
study conditions: read-out: IC50
measured attribute: pIC50
Entry type: numeric. Quantity: pIC50, the -log10 of concentration in molar units.

Measured pIC50, `OCCN1CCN(CCCN2c3ccccc3Sc3ccc(C(F)(F)F)cc32)CC1` : 5.02

* * *

assay overview: DRUGMATRIX: Phorbol Ester radioligand binding (ligand: [3H] PDBu)
Type: cell membranes, Mus musculus, ICR, Brain, Membrane
study conditions: Not Active = under 50% inhibition at 10 µM
measured attribute: IC50

Some entries whose results are on file:
C[C@@H]1CC[C@H]2[C@@H](C)C(=O)O[C@@H]3O[C@@]4(C)CC[C@@H]1[C@]32OO4
Not Active
CN[C@@H]1[C@H](O)[C@H](NC)[C@H]2O[C@@]3(O)C(=O)C[C@@H](C)O[C@H]3O[C@@H]2[C@H]1O
Not Active
Cc1cnc(C(=O)NCCc2ccc(S(=O)(=O)NC(=O)NC3CCCCC3)cc2)cn1 [GLIPIZIDE]
Not Active
Cc1cccc(Nc2cc(Cl)nc(SCC(=O)O)n2)c1C
Not Active
CC(C)(Sc1cc(C(C)(C)C)c(O)c(C(C)(C)C)c1)Sc1cc(C(C)(C)C)c(O)c(C(C)(C)C)c1
Not Active

IC50 reported for this compound `CCOC(=O)[C@H](CCc1ccccc1)N[C@@H](C)C(=O)N1CCC[C@H]1C(=O)O` : Not Active

Sure, the documented IC50 for `C[C@]12CC[C@H]3[C@@H](CCC4=CC(=O)CC[C@@]43C)[C@@H]1CC[C@@H]2O` is Not Active

* * *

target desc: Epidermal growth factor receptor (Homo sapiens, UniProt P00533)
Sequence (P00533 whole entry): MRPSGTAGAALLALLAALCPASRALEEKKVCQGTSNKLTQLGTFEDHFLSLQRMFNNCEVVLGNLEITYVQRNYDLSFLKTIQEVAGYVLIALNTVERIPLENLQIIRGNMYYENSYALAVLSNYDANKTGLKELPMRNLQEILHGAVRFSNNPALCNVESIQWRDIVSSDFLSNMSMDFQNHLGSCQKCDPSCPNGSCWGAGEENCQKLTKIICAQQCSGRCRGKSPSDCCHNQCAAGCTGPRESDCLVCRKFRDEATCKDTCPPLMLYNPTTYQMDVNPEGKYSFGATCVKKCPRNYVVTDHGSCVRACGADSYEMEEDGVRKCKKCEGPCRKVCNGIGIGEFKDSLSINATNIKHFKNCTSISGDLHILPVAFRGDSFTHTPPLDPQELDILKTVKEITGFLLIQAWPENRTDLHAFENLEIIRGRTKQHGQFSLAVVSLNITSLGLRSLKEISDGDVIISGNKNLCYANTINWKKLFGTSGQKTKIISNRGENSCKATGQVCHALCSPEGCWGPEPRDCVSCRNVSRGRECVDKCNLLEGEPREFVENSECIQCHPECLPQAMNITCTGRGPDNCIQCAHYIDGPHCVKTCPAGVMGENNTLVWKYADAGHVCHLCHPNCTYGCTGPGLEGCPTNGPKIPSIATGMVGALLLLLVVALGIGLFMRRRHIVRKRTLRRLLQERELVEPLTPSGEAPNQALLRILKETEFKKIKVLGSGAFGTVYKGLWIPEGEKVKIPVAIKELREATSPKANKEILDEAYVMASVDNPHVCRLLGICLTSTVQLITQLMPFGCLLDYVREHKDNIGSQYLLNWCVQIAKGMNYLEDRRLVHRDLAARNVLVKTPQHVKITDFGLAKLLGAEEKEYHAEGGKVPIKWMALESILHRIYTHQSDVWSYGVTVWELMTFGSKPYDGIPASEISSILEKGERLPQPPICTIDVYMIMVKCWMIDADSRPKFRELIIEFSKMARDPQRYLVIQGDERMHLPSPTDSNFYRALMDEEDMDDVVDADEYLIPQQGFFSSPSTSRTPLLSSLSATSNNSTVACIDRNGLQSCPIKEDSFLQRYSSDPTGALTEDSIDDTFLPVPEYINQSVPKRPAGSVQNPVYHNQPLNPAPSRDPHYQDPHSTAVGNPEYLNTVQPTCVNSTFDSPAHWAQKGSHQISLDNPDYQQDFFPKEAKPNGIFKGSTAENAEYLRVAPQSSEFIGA
assay overview: DRUGMATRIX: Protein Tyrosine Kinase, EGF Receptor enzyme inhibition (substrate: Poly(Glu:Tyr))
Assay type: cell-based, Insect cells
study conditions: insect cells; Not Active = under 50% inhibition at 10 µM
measured attribute: IC50

CCOC(=O)[C@H](CCc1ccccc1)N[C@@H](C)C(=O)N1Cc2ccccc2C[C@H]1C(=O)O
Not Active
OCCN1CCN(CCCN2c3ccccc3Sc3ccc(Cl)cc32)CC1 [PERPHENAZINE]
Not Active
CN1C2CCCC1CC(NC(=O)c1nn(C)c3ccccc13)C2 (stereo not drawn) [GRANISETRON]
Not Active
CCOC(=O)[C@H](CCc1ccccc1)N[C@@H](C)C(=O)N1CCC[C@H]1C(=O)O
Not Active
CC[C@@H](CO)NC(=O)[C@@H]1C=C2c3cccc4c3c(cn4C)C[C@H]2N(C)C1 [METHYSERGIDE]
Not Active

Sample CC(=O)Nc1nnc(S(N)(=O)=O)s1 [ACETAZOLAMIDE] ; IC50 observed: Not Active

The reported IC50 of the compound C[C@]12CCC(=O)C=C1CC[C@@H]1[C@@H]2[C@@H](O)C[C@@]2(C)[C@H]1CC[C@]2(O)C(=O)CO [HYDROCORTISONE] was Not Active

The reported IC50 of the compound CCC[C@@H]1C[C@@H](C(=O)N[C@@H]([C@H]2O[C@H](SC)[C@H](O)[C@@H](O)[C@H]2O)[C@H](C)Cl)N(C)C1 [CLINDAMYCIN] was Not Active

* * *

assay overview: DRUGMATRIX: Phosphodiesterase PDE3 enzyme inhibition (substrate: [3H]cAMP + cAMP)
Type: tissue-based, Homo sapiens
study conditions: platelet; Not Active = under 50% inhibition at 10 µM
measured attribute: IC50

Some compounds with known IC50 results, for comparison:
CC(=O)OCC(CCn1cnc2cnc(N)nc21)COC(C)=O
Not Active
N=C(N)N/N=C/c1c(Cl)cccc1Cl
Not Active
O=P1(N(CCCl)CCCl)NCCCO1 (centres undefined) [CYCLOPHOSPHAMIDE ANHYDROUS]
Not Active
CCc1oc2ccccc2c1C(=O)c1cc(Br)c(O)c(Br)c1
Not Active
Nc1ccc(S(=O)(=O)Nc2nccs2)cc1
Not Active

Entry `COc1cc(C(=O)NS(=O)(=O)c2ccccc2C)ccc1Cc1cn(C)c2ccc(NC(=O)OC3CCCC3)cc12` — recorded IC50 = Not Active

// sample `C[C@]12CC[C@H]3[C@@H](CCC4=CC(=O)CC[C@@]43C)[C@@H]1CC[C@@H]2O` , its IC50 was Not Active

// sample `CCOC(N)=O` , its IC50 was Not Active

get_value(item= `OCCN1CCN(CCCN2c3ccccc3Sc3ccc(Cl)cc32)CC1` , readout=IC50) returns Not Active

* * *

target desc: UniProt P17948
Sequence (P17948 whole entry): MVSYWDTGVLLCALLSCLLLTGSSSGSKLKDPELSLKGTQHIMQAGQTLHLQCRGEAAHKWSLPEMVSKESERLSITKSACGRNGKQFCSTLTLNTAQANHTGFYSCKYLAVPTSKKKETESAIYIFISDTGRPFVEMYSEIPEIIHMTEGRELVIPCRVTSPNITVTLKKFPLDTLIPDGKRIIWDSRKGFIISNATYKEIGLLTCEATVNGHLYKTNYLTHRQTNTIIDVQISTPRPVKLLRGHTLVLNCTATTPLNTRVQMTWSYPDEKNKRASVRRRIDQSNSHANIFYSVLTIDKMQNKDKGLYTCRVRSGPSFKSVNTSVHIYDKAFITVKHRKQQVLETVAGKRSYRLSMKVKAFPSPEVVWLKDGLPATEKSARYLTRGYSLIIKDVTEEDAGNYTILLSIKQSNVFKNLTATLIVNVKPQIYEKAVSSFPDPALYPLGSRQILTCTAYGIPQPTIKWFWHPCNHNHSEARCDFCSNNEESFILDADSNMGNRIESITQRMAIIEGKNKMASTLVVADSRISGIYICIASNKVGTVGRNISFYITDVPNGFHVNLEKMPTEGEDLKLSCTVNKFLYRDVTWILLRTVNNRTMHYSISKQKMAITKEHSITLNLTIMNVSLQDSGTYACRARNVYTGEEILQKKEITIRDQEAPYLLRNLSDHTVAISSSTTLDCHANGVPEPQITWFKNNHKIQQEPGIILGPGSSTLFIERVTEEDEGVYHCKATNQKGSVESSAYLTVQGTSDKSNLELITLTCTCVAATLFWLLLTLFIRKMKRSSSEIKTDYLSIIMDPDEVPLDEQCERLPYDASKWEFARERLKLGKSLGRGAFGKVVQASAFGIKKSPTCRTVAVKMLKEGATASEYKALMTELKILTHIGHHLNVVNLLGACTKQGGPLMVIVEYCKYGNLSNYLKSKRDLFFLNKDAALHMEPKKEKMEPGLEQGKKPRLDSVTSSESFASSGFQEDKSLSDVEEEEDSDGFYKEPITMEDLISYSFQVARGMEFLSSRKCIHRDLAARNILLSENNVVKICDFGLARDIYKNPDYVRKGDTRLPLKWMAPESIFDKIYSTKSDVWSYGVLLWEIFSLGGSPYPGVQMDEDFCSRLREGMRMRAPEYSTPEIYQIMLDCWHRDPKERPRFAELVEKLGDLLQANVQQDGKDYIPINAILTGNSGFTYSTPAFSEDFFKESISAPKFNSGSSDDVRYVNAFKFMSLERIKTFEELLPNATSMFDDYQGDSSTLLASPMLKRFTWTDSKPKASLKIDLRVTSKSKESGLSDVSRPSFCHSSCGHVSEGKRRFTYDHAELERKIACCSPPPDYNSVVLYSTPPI
assay overview: biochemical
Assay type: cell-based, HUVEC
study conditions: read-out: IC50
measured attribute: IC50 (nM)
Response body: numeric value in nM, unit text excluded.

Value of IC50 reported for the compound `Clc1cc2c(cc1Cl)Oc1cc(Cl)c(Cl)cc1O2` is 2.69

* * *

target desc: Alpha-2C adrenergic receptor (Homo sapiens, UniProt P18825)
Sequence (P18825 whole entry): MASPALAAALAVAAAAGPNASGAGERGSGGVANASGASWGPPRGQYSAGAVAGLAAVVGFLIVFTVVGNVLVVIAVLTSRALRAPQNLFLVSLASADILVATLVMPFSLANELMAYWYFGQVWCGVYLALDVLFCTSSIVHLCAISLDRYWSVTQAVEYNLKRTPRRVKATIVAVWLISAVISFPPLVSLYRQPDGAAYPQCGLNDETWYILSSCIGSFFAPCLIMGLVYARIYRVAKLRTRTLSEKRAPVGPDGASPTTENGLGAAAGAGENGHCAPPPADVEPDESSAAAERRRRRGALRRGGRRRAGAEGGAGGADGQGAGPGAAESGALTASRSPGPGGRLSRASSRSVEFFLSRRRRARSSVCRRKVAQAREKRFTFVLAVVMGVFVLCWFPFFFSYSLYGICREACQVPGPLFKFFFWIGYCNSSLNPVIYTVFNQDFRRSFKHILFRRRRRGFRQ
assay overview: DRUGMATRIX: Adrenergic Alpha-2C radioligand binding (ligand: [3H] MK-912)
Assay type: cell membranes, Sf9, Membrane
study conditions: sf9; read-out: Ki
measured attribute: pKi
Quick note: pKi values are minus log10 of concentrations in mol/L.

What the record says about `THIMEROSAL` : pKi is 6.14

* * *

IC50 tested on C-X-C chemokine receptor type 1 (Homo sapiens, UniProt P25024): recorded values; note: in other assays of this panel Not Active means under 50% inhibition at 10 µM
Sequence (P25024 whole entry): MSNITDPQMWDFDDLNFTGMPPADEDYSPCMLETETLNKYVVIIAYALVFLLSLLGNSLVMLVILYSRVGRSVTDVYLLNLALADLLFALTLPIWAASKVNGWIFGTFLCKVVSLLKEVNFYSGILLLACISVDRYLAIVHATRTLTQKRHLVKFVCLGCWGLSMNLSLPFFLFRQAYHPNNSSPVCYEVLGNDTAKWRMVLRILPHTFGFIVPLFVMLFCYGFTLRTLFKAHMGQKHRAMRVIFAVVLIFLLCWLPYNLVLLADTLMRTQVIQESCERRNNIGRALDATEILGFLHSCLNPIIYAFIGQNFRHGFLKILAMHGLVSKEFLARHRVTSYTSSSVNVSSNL

// below: answered compounds
CN(C(=O)CCCOc1ccc2[nH]c(=O)ccc2c1)C1CCCCC1 [CILOSTAMIDE]
Not Active
CCN(CC)CC#CCOC(=O)C(O)(c1ccccc1)C1CCCCC1 (stereo not given) [OXYBUTYNIN]
Not Active
CN1C2CCCC1CC(NC(=O)c1nn(C)c3ccccc13)C2 (stereo not given) [GRANISETRON]
Not Active
O=C(O)c1cccnc1 [NIACIN]
Not Active

Let us move to another entry and its IC50.
Observed IC50, C-X-C chemokine receptor type 1 (Homo sapiens, UniProt P25024), OCCN1CCN(CCCN2c3ccccc3Sc3ccc(C(F)(F)F)cc32)CC1 [FLUPHENAZINE] : Not Active
